tested on: MS2 coat protein; assay: apparent KD of MS2 coat protein; higher = weaker reporter binding; settings: Eterna round: R107; input ligand: theophylline 20 uM
measured_attribute: apparent KD of MS2 coat protein (nM)
Give just the number in nM; leave the unit off.

Dear colleague, I am looking for the recorded apparent KD of MS2 coat protein of the following sequence: GGUCUGAAAACCGAUCAAAGAUCGGAAGAUACCAGAGGGUGAUCCCUCCCUUGGCAGCUUCACAUGAGGAUCACCCAUGUAGACC [Omei inspired #BothOrNeither] 188

Dear colleague, I am looking for the recorded apparent KD of MS2 coat protein of the following sequence: AGAUUCGACACGGCCGCCACUCGAGACGGAUUUCCGAGUGUCGAACAUGAGGAUCACCCAUGUCCGAGGACCGGGUGUUGAGUCU [XTryp B #10] 42.8

Dear colleague, I am looking for the recorded apparent KD of MS2 coat protein of the following sequence: UGCCUAAAGUCGGCCGCCACUGAUGGUAUCCUCUCCUCGAGGUCACACAUGAGGAUCACCCAUGUCAGGACCGGGACUAGUGAGA [theeternabot_exclusion_MS2_Trp_B_36] 9.65

---

test system: MS2 coat protein; test: apparent KD of MS2 coat protein; higher = weaker reporter binding; conditions: Eterna round: R107; input ligand: arginine 13.2 mM
Assign apparent KD of MS2 coat protein to each entry below.
Give just the number in nM; leave the unit off.

Dear colleague, I am looking for the recorded apparent KD of MS2 coat protein of the following sequence: UAACAUGAGGAUCACCCAUGUUUAGAAGAACGAGGACCGGUACGGCCGCCACUCGAAAAGUGGAAGAAAAGAGGGAUAGAAUGAU [Same State Trp A GF1] 14

Dear colleague, I am looking for the recorded apparent KD of MS2 coat protein of the following sequence: UAAUGUGAGAGAAGGAGCGGAAGUCUCGUUACAACAUGAGGAUCACCCAUGUAACGUACAGUCCAGGUAGGUCGCUCUCGGGCGC [pqacmullin] 16.9

Dear colleague, I am looking for the recorded apparent KD of MS2 coat protein of the following sequence: GGUACAUGAGGAUCACCCAUGUAUGGGUACCGAGGACCGGUACGGCCGCCACUCGCAGGACAUGAGGAUCACCCAUGUGCAACCG [SSTA DOUBLE!!! :-D #11] 61

Dear colleague, I am looking for the recorded apparent KD of MS2 coat protein of the following sequence: UUAUAUAUGCGAAGGAGCGGGAAAUAUAUAUAUAUAAUCCUAACAUGAGGAUCACCCAUGUCCCAGGUAGGUCGCGCAUAUAUGG [12.E] 74.2

Dear colleague, I am looking for the recorded apparent KD of MS2 coat protein of the following sequence: GGUGGCUGGAUCGAUACCAGCCACCACCGAUAGACCACAUGAGGAUCACCCAUGUUGGGUGGCCCUUGGCAGCGGUCCGGCUGCC [#1 Same State - Theophylline B Attempt #7 (HarryS)] 126
